B1: MYL5 (parent)
chain: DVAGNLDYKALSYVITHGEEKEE

variants of: B1; assay: protein stability index of a GFP-peptide fusion (GPS, HEK-293T) (PSI 1-6); higher = more stable; conditions: c terminus: native;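 also: lentivirally expressed fusions sorted by FACS into six bins by GFP to DsRed ratio, PSI derived from sequencing read proportions per bin multiplied by bin number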
Recorded protein stability index for the following variants
Measurement type: protein stability index

N5V ... 2.05
K9G ... 1.98
K9C ... 3.09
